Conditions: 338.15 K; 50000 kPa; Liquid; Vibrating tube method
Property name: mass density (kg/m3)
The figure you give is taken to be in kg/m3; do not add the unit.

>>> observed_measurement("Cc1cccs1")
1014.44
>>> observed_measurement("Cc1ccc(C)s1")
981.46
>>> observed_measurement("Cc1ccsc1")
1015.62

Exercise: Return reported mass density; argument: `c1ccsc1`
Solution: 1056.13

====

Conditions: 293.15 K; 10000 kPa; Liquid; Vibrating tube method
Property name: mass density (kg/m3)
The figure you give is taken to be in kg/m3; do not add the unit.

# count of solved cases: 3
>>> observed_measurement("c1ccsc1")
1072.75
>>> observed_measurement("Cc1cccs1")
1028.04
>>> observed_measurement("Cc1ccc(C)s1")
993.02

Now look at this one.
Exercise: Return reported mass density; argument: `Cc1ccsc1`
Solution: 1028.95

====

Conditions: 308.15 K; 65000 kPa; Liquid; Vibrating tube method
Property name: mass density (kg/m3)
The figure you give is taken to be in kg/m3; do not add the unit.

>>> observed_measurement("Cc1cccs1 [2-methylthiophene]")
1050.39
>>> observed_measurement("c1ccsc1 [thiophene]")
1095.31
>>> observed_measurement("Cc1ccc(C)s1 [2,5-dimethylthiophene]")
1015.59

Now look at this one.
Exercise: Return reported mass density; argument: Cc1ccsc1 [3-methylthiophene]
Solution: 1050.91

====

Settings: 338.15 K; 5000 kPa; Liquid; Vibrating tube method
± gives the expanded uncertainty stated by the source.
Property name: mass density
Enter the number, and then the unit.

>>> observed_measurement("Cc1ccsc1")
"978.01 ± 0.51 kg/m3"
>>> observed_measurement("Cc1cccs1")
"976.06 ± 0.52 kg/m3"
>>> observed_measurement("c1ccsc1")
"1015.53 ± 0.5 kg/m3"

Exercise: Return reported mass density; argument: `Cc1ccc(C)s1`
Solution: 944.14 ± 0.5 kg/m3

====

Conditions: 293.15 K; 40000 kPa; Liquid; Vibrating tube method
Property name: mass density (kg/m3)
The figure you give is taken to be in kg/m3; do not add the unit.

>>> observed_measurement("c1ccsc1 [thiophene]")
1094.34

Exercise: Return reported mass density; argument: Cc1cccs1 [2-methylthiophene]
Solution: 1048.68

Exercise: Return reported mass density; argument: Cc1ccc(C)s1 [2,5-dimethylthiophene]
Solution: 1013.45

Exercise: Return reported mass density; argument: Cc1ccsc1 [3-methylthiophene]
Solution: 1049.27

====

Conditions: 323.15 K; 25000 kPa; Liquid; Vibrating tube method
In this section we review reported mass density values for a set of molecules.
The figure you give is taken to be in kg/m3; do not add the unit.

Exercise: Return reported mass density; argument: Cc1cccs1 [2-methylthiophene]
Solution: 1009.52

Exercise: Return reported mass density; argument: Cc1ccsc1 [3-methylthiophene]
Solution: 1010.83

Exercise: Return reported mass density; argument: c1ccsc1 [thiophene]
Solution: 1051.73

Exercise: Return reported mass density; argument: Cc1ccc(C)s1 [2,5-dimethylthiophene]
Solution: 976.16

====

In this section we review reported mass density values for a set of compounds.
Settings: 303.15 K; 35000 kPa; Liquid; Vibrating tube method
The figure you give is taken to be in kg/m3; do not add the unit.

Exercise: Return reported mass density; argument: Cc1ccc(C)s1 [2,5-dimethylthiophene]
Solution: 1001.4

Exercise: Return reported mass density; argument: c1ccsc1 [thiophene]
Solution: 1080.62

Exercise: Return reported mass density; argument: Cc1ccsc1 [3-methylthiophene]
Solution: 1036.87

Exercise: Return reported mass density; argument: Cc1cccs1 [2-methylthiophene]
Solution: 1036.1
